Measured values drawn from paper PMC6150025 for this set.

# target_desc: PTP1B (Homo sapiens)
# Construct: encodes for PTP1B (residues 1–321); inferred from the pET28A vector, NdeI/BamHI cloning and Ni-agarose purification) (N); made in house; host or cells: E. coli BLR
# assay_explanation: PTP1B enzymatic inhibition assay (pNPP substrate)
# Type: biochemical
# run_conditions: Table S1, 200 µM compound
Class assignment keyed on % Inhibition (200 µM), ranges bin 0: < 40%; bin 1: ≥ 40% and < 50%; bin 2: ≥ 50%

molecule	discrete_label
CSc1nc2cc(C(=O)Nc3nc4cc(Oc5cccc(Cl)c5Cl)c(Cl)cc4[nH]3)ccc2n1C	bin 1
N#Cc1ccc(-c2c(NC(=O)NS(=O)(=O)c3ccccc3Cl)oc(-c3ccco3)c2C#N)cc1	bin 2
O=C1COc2cc(O)ccc21 [6-hydroxy-2,3-dihydrobenzo[b]furan-3-one]	bin 0
O=C(O)c1csc(-c2ccc(C(F)(F)F)cc2)n1	bin 0
O=C(NNS(=O)(=O)c1cc(C(F)(F)F)cc(C(F)(F)F)c1)c1cnn(-c2ccccc2)c1C(F)(F)F	bin 1

Exercise: # bin lookup: classify COC(=O)c1cc2nc(SCC(=O)Nc3ncc([N+](=O)[O-])s3)[nH]c2cc1Cl by its % Inhibition (200 µM)
Solution: bin 2

Exercise: # bin lookup: classify Cc1cc(-c2nn(C)c(=O)c3ccccc23)cc(C)c1OCC(=O)NNC(=O)Nc1ccccc1 by its % Inhibition (200 µM)
Solution: bin 2

Exercise: # bin lookup: classify O=C(Nc1ccc(COc2ccccc2)cc1)Oc1ccccc1N1CCOCC1 by its % Inhibition (200 µM)
Solution: bin 2

Exercise: # bin lookup: classify O=C(O)c1ccc2[nH]c3c(c2c1)CCCC3 by its % Inhibition (200 µM)
Solution: bin 0

Exercise: # bin lookup: classify COc1cc(C(CC(=O)O)CC(=O)N2CCC(n3cccc3)CC2)cc(OC)c1OC (stereo not shown) by its % Inhibition (200 µM)
Solution: bin 0

* * *

# target_desc: PTP1B (Homo sapiens, UniProt P18031)
# Construct: encodes for PTP1B (residues 1–321); inferred from the pET28A vector, NdeI/BamHI cloning and Ni-agarose purification) (N); made in house; host or cells: E. coli BLR
# Sequence (P18031 1-321): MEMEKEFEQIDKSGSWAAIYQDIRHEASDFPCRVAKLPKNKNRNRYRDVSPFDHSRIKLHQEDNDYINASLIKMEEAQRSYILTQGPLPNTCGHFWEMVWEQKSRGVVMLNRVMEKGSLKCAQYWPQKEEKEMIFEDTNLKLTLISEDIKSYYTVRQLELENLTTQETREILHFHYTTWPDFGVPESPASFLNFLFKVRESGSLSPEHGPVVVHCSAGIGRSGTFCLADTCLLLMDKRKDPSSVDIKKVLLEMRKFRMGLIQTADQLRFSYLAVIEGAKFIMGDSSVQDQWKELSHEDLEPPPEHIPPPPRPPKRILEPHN
# assay_explanation: PTP1B enzymatic inhibition assay (pNPP substrate)
# Type: biochemical
# run_conditions: Table S1, 200 µM compound
Cut-off 50% on % Inhibition (200 µM), inclusive. At or above means true (1); below means false (0).

molecule	discrete_label
CC1C(=NO)CC(c2ccc([N+](=O)[O-])cc2)NC1c1ccc([N+](=O)[O-])cc1 (stereo not shown)	true (1)

Exercise: Determine whether this molecule has % Inhibition (200 µM) no lower than 50%: CSc1nc2cc(C(=O)O)ccc2n1C
Solution: false (0)

Exercise: Determine whether this molecule has % Inhibition (200 µM) no lower than 50%: Cc1ccc(S(=O)(=O)CCSc2n[nH]c(=O)n2-c2ccc(OCc3ccccc3)cc2)cc1
Solution: false (0)

Exercise: Determine whether this molecule has % Inhibition (200 µM) no lower than 50%: O=S(=O)(c1ccc(NC(=S)Nc2ccc3c(c2)OCO3)cc1)N1CCCCC1
Solution: false (0)

Exercise: Determine whether this molecule has % Inhibition (200 µM) no lower than 50%: CN(C)S(=O)(=O)Oc1ccc(-c2noc(-c3ccc(OC(F)(F)F)cc3)n2)cc1
Solution: false (0)

Exercise: Determine whether this molecule has % Inhibition (200 µM) no lower than 50%: O=C(O)C=CC(=O)Nc1ccc(N2CCCCCC2)c(NC(=O)C=CC(=O)O)c1
Solution: true (1)

Exercise: Determine whether this molecule has % Inhibition (200 µM) no lower than 50%: Cn1c(SCC(=O)Nc2nccs2)nc2cc(Oc3cccc4ccccc34)c(Cl)cc21
Solution: true (1)
